# target.desc: ΔF508-CFTR (Homo sapiens, UniProt P13569, DEL508-508)
# Sequence (P13569 with tags, fused parts or gaps DEL508-508): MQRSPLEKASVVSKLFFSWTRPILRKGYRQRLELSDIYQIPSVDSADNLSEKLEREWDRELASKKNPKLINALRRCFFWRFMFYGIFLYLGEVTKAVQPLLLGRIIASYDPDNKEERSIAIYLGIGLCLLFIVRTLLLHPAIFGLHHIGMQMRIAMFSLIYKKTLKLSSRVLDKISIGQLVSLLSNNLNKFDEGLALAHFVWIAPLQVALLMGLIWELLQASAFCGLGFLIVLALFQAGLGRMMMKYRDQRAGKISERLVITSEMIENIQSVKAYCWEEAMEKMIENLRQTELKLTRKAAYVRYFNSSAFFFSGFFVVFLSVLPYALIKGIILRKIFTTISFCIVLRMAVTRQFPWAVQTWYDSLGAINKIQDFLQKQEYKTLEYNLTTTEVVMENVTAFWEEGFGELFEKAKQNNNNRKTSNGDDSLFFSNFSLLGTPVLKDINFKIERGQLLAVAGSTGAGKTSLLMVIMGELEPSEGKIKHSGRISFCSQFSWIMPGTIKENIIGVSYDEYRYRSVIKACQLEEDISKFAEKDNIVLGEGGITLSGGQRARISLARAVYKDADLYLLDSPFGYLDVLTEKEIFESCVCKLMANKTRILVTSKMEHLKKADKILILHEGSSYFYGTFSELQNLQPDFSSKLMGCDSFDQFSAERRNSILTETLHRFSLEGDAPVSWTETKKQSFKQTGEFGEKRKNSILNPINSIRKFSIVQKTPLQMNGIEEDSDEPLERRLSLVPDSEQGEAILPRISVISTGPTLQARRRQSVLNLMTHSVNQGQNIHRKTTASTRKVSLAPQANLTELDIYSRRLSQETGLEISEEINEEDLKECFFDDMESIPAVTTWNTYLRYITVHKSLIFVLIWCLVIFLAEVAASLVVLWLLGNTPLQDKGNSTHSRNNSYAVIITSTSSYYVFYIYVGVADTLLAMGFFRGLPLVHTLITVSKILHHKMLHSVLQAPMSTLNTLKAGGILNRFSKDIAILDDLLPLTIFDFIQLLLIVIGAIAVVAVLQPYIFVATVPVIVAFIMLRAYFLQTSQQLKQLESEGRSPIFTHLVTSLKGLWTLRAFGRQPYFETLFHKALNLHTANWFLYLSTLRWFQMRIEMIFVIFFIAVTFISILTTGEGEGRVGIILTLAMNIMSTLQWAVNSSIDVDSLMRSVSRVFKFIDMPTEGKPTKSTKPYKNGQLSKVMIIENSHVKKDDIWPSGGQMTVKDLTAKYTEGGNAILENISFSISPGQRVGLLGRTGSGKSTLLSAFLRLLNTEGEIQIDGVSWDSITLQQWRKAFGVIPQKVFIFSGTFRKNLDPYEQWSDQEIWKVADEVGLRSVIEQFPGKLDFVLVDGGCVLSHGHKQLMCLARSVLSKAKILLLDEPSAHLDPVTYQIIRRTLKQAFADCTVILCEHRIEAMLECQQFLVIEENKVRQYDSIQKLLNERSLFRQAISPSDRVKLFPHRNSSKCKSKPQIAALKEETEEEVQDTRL
# measurement.notes: Membrane potential optical assay (FRET/VIPR), identification of correction compounds
# EC50 per record follows

Some entries whose results are on file:
>  <compound>
COc1ccc(S(=O)(=O)N2CCN(C(C)c3ncc(C(=O)O)c(N4CCCCC4)n3)CC2)cc1 (stereo not shown)

>  <observed.result>
25 to 60 µM

$$$$
>  <compound>
CC(c1nc2ccc(C#N)cc2c(=O)n1C)N1CCN(S(=O)(=O)c2ccc(Cl)cc2)CC1 (stereo not shown)

>  <observed.result>
10 to 25 µM

$$$$
>  <compound>
CC(C)Oc1nc(C(C)N2CCN(S(=O)(=O)c3ccc(Br)cc3)CC2)nc2ccccc12 (stereo not shown)

>  <observed.result>
< 10 µM

$$$$
>  <compound>
CC(c1nc2ccccc2c(=O)n1C)N1CCN(S(=O)(=O)c2ccc(OC(F)(F)F)cc2)CC1 (stereo not shown)

>  <observed.result>
10 to 25 µM

$$$$
>  <compound>
COc1ccc(S(=O)(=O)N2CCN(C(C)c3nc(N4CCC(CO)CC4)c4ccccc4n3)CC2)cc1 (stereo not shown)

>  <observed.result>
25 to 60 µM

$$$$

Task: Report measured EC50; entry is Cc1cccc(S(=O)(=O)N2CCN(C(C)c3nc4ccc(Cl)cc4c(=O)n3C)CC2)c1 (stereo not shown)
Output: 10 to 25 µM

Task: Entry COc1ccc(S(=O)(=O)N2CCN(C(C)c3ncc4ccccc4n3)CC2)cc1 (stereo not shown) needs its EC50 filled in; supply it.
Output: 25 to 60 µM

Task: Read off the recorded EC50 for CC(c1nc2ccc(Cl)cc2c(=O)n1C)N1CCN(S(=O)(=O)c2ccccc2Cl)CC1 (stereo not shown)
Output: 10 to 25 µM

Task: # return recorded EC50 for entry CC(c1nc2ccccc2c(=O)n1C)N1CCN(S(C)(=O)=O)CC1 (stereo not shown)
Output: 25 to 60 µM

Task: Identify measured EC50 corresponding to COc1ccc(S(=O)(=O)N2CCN(C(C)c3nc(N4CCOCC4)c4ccccc4n3)CC2)cc1 (stereo not shown)
Output: 25 to 60 µM

Task: Output EC50 of Cc1ccccc1S(=O)(=O)N1CCN(C(C)c2nc3ccc(Cl)cc3c(=O)n2C)CC1 (stereo not shown)
Output: 10 to 25 µM

Task: Query EC50 for CNc1nc(C(C)N2CCN(S(=O)(=O)c3ccc(OC)cc3)CC2)nc2ccccc12 (stereo not shown)
Output: 25 to 60 µM

Task: Give reported EC50 value for COc1ccc(S(=O)(=O)N2CCN(C(C)c3nc(OCCN(C)C)c4ccccc4n3)CC2)cc1 (stereo not shown)
Output: 25 to 60 µM

Task: Supply recorded EC50 for "CCCn1c(CN2CCN(S(=O)(=O)c3ccc(Br)cc3)CC2)nc2ccccc2c1=O" here.
Output: < 10 µM

Task: Provide EC50 value for the following compound: COc1ccc(S(=O)(=O)N2CCN(C(C)c3nc(OCC4COCO4)c4ccccc4n3)CC2)cc1 (stereo not shown)
Output: 25 to 60 µM

Task: Provide one value: measured EC50 of CCCC1CCN(c2nc(C(C)N3CCN(S(=O)(=O)c4ccc(OC)cc4)CC3)nc3ccccc23)CC1 (stereo not shown)
Output: < 10 µM

Task: Return the recorded EC50 value; entry: COc1ccc(S(=O)(=O)N2CCN(C(C)c3nc4ccc(OC)cc4c(=O)n3C)CC2)cc1 (stereo not shown)
Output: 10 to 25 µM

Task: Return value of EC50 for input COc1ccc(S(=O)(=O)N2CCN(C(C)c3ncc(CO)c(N4CCCCC4)n3)CC2)cc1 (stereo not shown) , no commentary.
Output: 25 to 60 µM

Task: Find the measured EC50 of COc1ccc(S(=O)(=O)N2CCN(C(C)c3nc(N4CCC(C(=O)O)CC4)c4ccccc4n3)CC2)cc1 (stereo not shown) and report it.
Output: 25 to 60 µM

Task: Specify reported EC50 for the compound shown: CC(c1nc2ccccc2c(=O)n1C)N(CCNS(=O)(=O)c1ccc(Cl)cc1)S(=O)(=O)c1ccc(Cl)cc1 (stereo not shown)
Output: 25 to 60 µM

Task: Hello, please tell me recorded EC50 for this one: Cc1ccc(NC(=O)N2CCN(C(C)c3nc4ccccc4c(=O)n3C)CC2)cc1 (stereo not shown)
Output: 10 to 25 µM

Task: Kindly indicate its recorded EC50. Item: CC(c1nc2ccccc2c(=O)n1C)N(C)C1CCN(S(=O)(=O)c2ccc(Cl)cc2)CC1 (stereo not shown)
Output: 25 to 60 µM

Task: Using the record for Cc1ccc(S(=O)(=O)N2CCN(C(C)c3nc4cccc(Cl)c4c(=O)n3C)CC2)cc1 (stereo not shown) , state its measured EC50.
Output: 10 to 25 µM

* * *

EC50 listing for selected compounds.
# target.desc: ΔF508-CFTR (Homo sapiens, UniProt P13569, DEL508-508)
# measurement.notes: Membrane potential optical assay (FRET/VIPR), identification of correction compounds

These recorded examples may help you get a feel for the data.
>  <compound>
COc1ccc(S(=O)(=O)N2CCN(C(C)c3nc(N4CCCC4)c4ccccc4n3)CC2)cc1 (centres unmarked)

>  <EC50>
10 to 25 µM

$$$$
>  <compound>
COc1ccc(S(=O)(=O)N2CCN(C(C)c3nc(N4CCC(C(N)=O)CC4)c4ccccc4n3)CC2)cc1 (centres unmarked)

>  <EC50>
25 to 60 µM

$$$$
>  <compound>
COc1ccc(S(=O)(=O)N2CCN(C(C)c3nc4ccccc4c(=O)n3C)CC2)cc1 (centres unmarked)

>  <EC50>
10 to 25 µM

$$$$
>  <compound>
CC(c1nc2ccccc2c(=O)n1C)N1CCN(C(=O)c2ccc(Cl)cc2)CC1 (centres unmarked)

>  <EC50>
25 to 60 µM

$$$$
>  <compound>
Cc1ccccc1C(=O)N1CCN(C(C)c2nc3ccccc3c(=O)n2C)CC1 (centres unmarked)

>  <EC50>
< 10 µM

$$$$

Task: Read off the recorded EC50 for CCCn1c(C(C)N2CCN(S(=O)(=O)c3ccc(Cl)cc3)CC2)nc2ccccc2c1=O (centres unmarked)
Output: < 10 µM

Task: Annotate the compound CCCn1c(C(C)N2CCN(C(=O)Nc3ccc(F)cc3F)CC2)nc2ccccc2c1=O (centres unmarked) with its measured EC50.
Output: 25 to 60 µM

Task: Give EC50 for the following compound: COc1ccc(S(=O)(=O)Nc2ccc(NC(C)c3nc4ccccc4c(=O)n3C)cc2)cc1 (centres unmarked)
Output: 25 to 60 µM

Task: Return EC50 for the following compound: CC(c1nc2ccc(C(N)=O)cc2c(=O)n1C)N1CCN(S(=O)(=O)c2ccc(Br)cc2)CC1 (centres unmarked)
Output: 10 to 25 µM

Task: Report measured EC50; entry is COc1ccc(S(=O)(=O)N2CCN(C(C)c3nc4ccccc4c(=O)n3C)CC2)cc1OC (centres unmarked)
Output: 25 to 60 µM

Task: Give a short answer stating reported EC50 for COc1ccc(S(=O)(=O)N2CCN(C(C)c3nc(N4CCC(N5CCCCC5)CC4)c4ccccc4n3)CC2)cc1 (centres unmarked) .
Output: 25 to 60 µM

Task: Fill in EC50 for record CC(=O)c1ccc(S(=O)(=O)N2CCN(C(C)c3nc4ccccc4c(=O)n3C)CC2)cc1 (centres unmarked)
Output: 25 to 60 µM

* * *

# target.desc: ΔF508-CFTR (Homo sapiens, UniProt P13569, DEL508-508)
# measurement.notes: Membrane potential optical assay (FRET/VIPR), identification of correction compounds
Here, each record is paired with measured EC50 data.

>  <compound>
C[C@H](c1nc(N2CCCCC2)c2ccccc2n1)N1CCN(S(=O)(=O)c2ccc(Cl)cc2)CC1

>  <EC50>
< 10 µM

$$$$
>  <compound>
CC(c1nc2ccccc2c(=O)n1C)N(C)C1CCN(S(=O)(=O)c2ccc(Br)cc2)CC1 (stereo not shown)

>  <EC50>
25 to 60 µM

$$$$
>  <compound>
CCN(CC)c1nc(C(C)N2CCN(S(=O)(=O)c3ccc(OC)cc3)CC2)nc2ccccc12 (stereo not shown)

>  <EC50>
10 to 25 µM

$$$$

Lab note: next compound to report on.
Task: Assign EC50 to the following record: COc1ccc(S(=O)(=O)N2CCN(C(C)c3ncc(Br)c(=O)[nH]3)CC2)cc1 (stereo not shown)
Output: 25 to 60 µM

* * *

# target.desc: ΔF508-CFTR (Homo sapiens, UniProt P13569, DEL508-508)
# Construct: expressed in transfected cells
# measurement.notes: Membrane potential optical assay (FRET/VIPR), identification of correction compounds
# Assay type: cell-based
# conditions.used: relative efficacy
Form field: Emax (one value per entry).

>  <compound>
CCCn1c(C(C)N2CCN(S(=O)(=O)c3ccc(Cl)cc3)CC2)nc2ccccc2c1=O (centres unmarked) [compound 26]

>  <Emax>
> 100%

$$$$
>  <compound>
CC(c1nc(OC2CCCC2)c2ccccc2n1)N1CCN(S(=O)(=O)c2ccc(Br)cc2)CC1 (centres unmarked) [compound 218]

>  <Emax>
> 100%

$$$$
>  <compound>
CCCn1c(C(C)N2CCN(S(=O)(=O)c3ccc(OC)cc3)CC2)nc2ccccc2c1=O (centres unmarked) [compound 22]

>  <Emax>
> 100%

$$$$
>  <compound>
CCCn1c([C@H](C)N2CCN(S(=O)(=O)c3ccc(Br)cc3)CC2)nc2ccccc2c1=O [compound 147]

>  <Emax>
> 100%

$$$$
>  <compound>
CC(c1nc2ccccc2c(=O)n1C)N1CCN(S(=O)(=O)c2ccc(C(F)(F)F)cc2)CC1 (centres unmarked) [compound 70]

>  <Emax>
25 to 100%

$$$$
>  <compound>
CCOC(=O)c1cnc(C(C)N2CCN(S(=O)(=O)c3ccc(OC)cc3)CC2)nc1OC1CCCC1 (centres unmarked) [compound 362]

>  <Emax>
> 100%

$$$$

Task: Report its Emax with ΔF508-CFTR (Homo sapiens, UniProt P13569, DEL508-508) as the test system: CC(c1nc2ccccc2c(=O)n1C)N1CCN(S(=O)(=O)Cc2ccccc2)CC1 (centres unmarked) [compound 278]
Output: < 25%

Task: Please look at COc1ccc(S(=O)(=O)N2CCN(C(C)c3nc(NCc4ccccc4)c4ccccc4n3)CC2)cc1 (centres unmarked) [compound 367] and tell me its recorded Emax on ΔF508-CFTR (Homo sapiens, UniProt P13569, DEL508-508).
Output: 25 to 100%
